Values were extracted from patent US20250154283A1.

Target: T1, biotinylated human VWF cysteine knot (CK) domain construct (human, UniProt P04275 2724-2813, biotinylated in vitro (BirA) on the biotinylation tag; one N-glycan)
T1 construct: Expressed in HEK293 EBNA cells; disulfide-linked homodimer; also called human VWF CK; human VWF CK domain; not shown: in vitro biotinylation tag, HRV-3C site and 3 VWF residues before the CK domain
Experiment: SPR, scFv captured via anti-SV5, CK domain injected, pH 5.5, apparent Kd;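 further: scFvs from crude yeast supernatants captured on chip-bound anti-SV5 antibody, Kd computed as koff divided by kon, dimeric CK construct likely makes affinity appear higher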
Measured pKd, listed per entry.
Quick note: pKd values are minus log10 of concentrations in mol/L.

binder="Lib6_P3_A8_scFv (scFv, VH-linker-VL; not shown: C-terminal 3xFLAG and SV5 tags) scFv: EVQLVQSGAEVKKPGASVKVSCKASGYRFTNYDISWVRQAPGQGLEWMGGINPSSGITIYAQKLQGRGTMTTDPSTSTAYMELRSLRSDDTAVYYCARGAAYGDYLDYWGQGTLVTVSSSGGSTITSYNVYYTKLSSSGTESALTQPASVSGSPGQSITISCTGTNLGEKYVSWYQQHPGKAPKLMIYSTSQRPSGVSNRFSGSKSGNTASLTITGLQAEDEADYYCSSYTASSTPGLVFGGGTKLTVL" reportedmetric=pKd endpointresult=9.06
binder="Lib1_P1_D1_scFv (scFv, VH-linker-VL; not shown: C-terminal 3xFLAG and SV5 tags) scFv: QVQLVQSGAEVKKPGASVKVSCKVSGDTFTDRYIHWVRQAPGKGLEWMGGINTIFGTAIYAQKFQGRVTMTEDTSTDTAYMELSSLKSEDTAVYYCAREGATVSTNFDYWGQGTLVTVSSSGGSTITSYNVYYTKLSSSGTDIQMTQSPSSVSASVGDRVTITCRASQDIRKSLAWYQQKPGKAPKLLIYDISNRPSGVPSRFSGSGSGTDFTLTISSLQPEDFANYYCQQGYSAPYGFGGGTKVEIK" reportedmetric=pKd endpointresult=9.47
binder="189_Lib4_scFv (scFv, VH-linker-VL; not shown: C-terminal 3xFLAG and SV5 tags) scFv: QVQLQESGPGLVKPSQTLSLTCTVSGVTFSSYGWSWIRQPPGKGLEWIGYVDTSGSTDYNPSLKSRVTMSVDTSKNQFSLKVNSVTAADTAVYYCARTTYYYDSSGFARGWFDPWGQGTLVTVSSSGGSTITSYNVYYTKLSSSGTEIVMTQSPATLSLSPGERATLSCRASQSVPSSHLAWYQQKPGQAPRLLIYDATNRAAGIPARFSGSGSGTDFTLTISSLEPEDFAVYYCQQYDNWPSPSFGGGTKVEIK" reportedmetric=pKd endpointresult=9.57

Query string: Item under review: Lib4_P2_A1_scFv (scFv, VH-linker-VL; not shown: C-terminal 3xFLAG and SV5 tags) scFv: QVQLQESGPGLVKPSQTLSLTCTVSGASFGDNYWSWIRQPPGKGLEWIGYIDTSGSSDYNPSLKSRVTMSVDTSKNQFSLKVNSVTAADTAVYYCARVSWGYYAMDVWGQGTTVTVSSSGGSTITSYNVYYTKLSSSGTEIVMTQSPATLSLSPGERATLSCRASQGISGRLAWYQQKPGQAPRLLIYDVSTRATGIPARFSGSGSGTDFTLTISSLEPEDFAVYYCQQYDTSAPLTFGGGTKVEIK . Reported pKd?
Result string: 9.63
